biological target: Estrogen receptor (Homo sapiens); experiment: ERF_TW_NR_COA_hESR1: Eurofins (ERF) Nuclear Receptor (NR) Functional Coactivator Assay for human Estrogen Receptor alpha (ERa) Agonism
Records with an inconclusive call do not appear. The source made the active and inactive calls. The calls were made as follows: active = hit-call score of the fitted dose curve at least 0.9, where 1 is the maximum; inconclusive = response in the unintended direction; inactive = score below 0.9.
Form entry, call: pick from TRUE (active), FALSE (inactive)

# input I would be grateful if you could indicate the recorded call for `FC(F)(F)C(F)(F)C(F)(F)C(F)(F)C(F)(F)C(F)(F)I` .
# output TRUE

# input And then `OCCC(F)(F)C(F)(F)C(F)(F)C(F)(F)C(F)(F)C(F)(F)C(F)(F)C(F)(F)F` , what is it?
# output FALSE

# input Moving on to the next molecule: `OCC(F)(F)C(F)(F)C(F)(F)C(F)(F)C(F)(F)C(F)(F)C(F)(F)C(F)(F)CO`
# output TRUE

# input Same question, `C=CC(=O)OCC(F)(F)C(F)(F)C(F)(F)C(F)(F)C(F)(F)C(F)(F)C(F)(F)C(F)F` this time
# output TRUE

# input Again, but for `OCCC(F)(F)C(F)(F)C(F)(F)C(F)(F)C(F)(F)C(F)(F)F`
# output TRUE

# input Entry `OCCCC(F)(F)C(F)(F)C(F)(F)C(F)(F)C(F)(F)C(F)(F)C(F)(F)F` please
# output TRUE

# input Follow-up entry: `N=C(N)C(F)(F)C(F)(F)C(F)(F)C(F)(F)C(F)(F)C(F)(F)C(F)(F)F`
# output FALSE
